system: HOP-62; assay: relative viability (nuclei count vs DMSO), 5 days (fraction); higher = more cells survive; conditions: first compound 0.5 µM
Measured relative viability, listed per entry for reference.
Respond with the number and no other words.

Compound	Result
COc1cc2nccc(Oc3ccc(NC(=O)Nc4cc(C)on4)c(Cl)c3)c2cc1OC [Tivozanib] + C[C@@H](Oc1cc(-c2cnn(C3CCNCC3)c2)cnc1N)c1c(Cl)ccc(F)c1Cl [Crizotinib] (partner 1 µM)	0.919

// below: relative viability requested for another compound
For the compound shown here, Nc1ccn([C@@H]2O[C@H](CO)[C@@H](O)[C@@H]2O)c(=O)n1 [Cytarabine] + COc1cccc2cc(-c3nc([C@H]4CC[C@H](C(=O)O)CC4)n4ncnc(N)c34)[nH]c12 [OSI-027] (partner 0.5 µM) , give the reported relative viability. 0.12

All values here come from the supplement of paper PMC10307832.
